Source: ChEMBL document CHEMBL1201862

Test system: BT-549
TEST_DETAILS: NCI tumour cell line growth inhibition, 48 h
The source made the active and inactive calls. Cut-off read from the data, not from the text of the source: active = GI50 up to about 1.1 µM and inactive = higher. Square brackets hold non-standard residues; d marks the D form. Peptide text beside a SMILES is read from it. * marks the point of attachment. Phe(4-NO2) = N[CH](Cc1ccc([N+](=O)[O-])cc1)C(=O)O; Cbz = O=C(OCc1ccccc1)*
The compounds listed here are annotated with their GI50.
MEASUREMENT_LABEL: GI50

compound=COc1ccc(OC)c2sc(N3C(=O)/C(=C/c4ccc(SC)cc4)N=C3c3ccccc3)nc12 result="29.4 µM (inactive)"
compound="CC1(C)C2CCC1C(=O)C(C=O)C2 (stereo unspecified)" result="> 100 µM (inactive)"
compound=CCOC(=O)[C@H]1C[C@@H](C(=O)c2ccccc2)N2N=C(c3ccc(Br)cc3)C=C[C@H]12 result="> 100 µM (inactive)"
compound="NNC(=S)N/N=C(/C(=O)Nc1ccc(Cl)c(Cl)c1)C(C1OC(=O)c2ccccc21)[N+](=O)[O-] (stereo unspecified)" result="> 100 µM (inactive)"
compound="CCOC(=O)CCC(NC(=O)OCc1ccccc1)C(=O)NC(CCC(=O)OCC)C(=O)NC(CCC(=O)OCC)C(=O)NC(CCC(=O)OCC)C(=O)NC(CCC(=O)OCC)C(=O)NC(Cc1ccc([N+](=O)[O-])cc1)C(=O)NC(CCC(=O)OCC)C(=O)NC(CCC(=O)OCC)C(=O)NC(CCC(=O)OCC)C(=O)NC(CCC(=O)OCC)C(=O)NC(CCC(=O)OCC)C(=O)OCC (stereo unspecified) (Cbz-E(OEt)E(OEt)E(OEt)E(OEt)E(OEt)[Phe(4-NO2)]E(OEt)E(OEt)E(OEt)E(OEt)E(OEt)-OEt; configuration not given here)" result="> 50 µM (inactive)"
compound=Nc1c(C(=O)O)nnc2cc(Cl)c(Cl)cc12 result="72.6 µM (inactive)"

====

System: CCRF-CEM
TEST_DETAILS: NCI tumour cell line growth inhibition, 48 h
The source made the active and inactive calls. Cut-off read from the data, not from the text of the source: active = GI50 up to about 1.1 µM and inactive = higher.
Below, each entry is listed alongside its reported GI50.
MEASUREMENT_LABEL: GI50

molecule="N#CC(C#N)=C1NC(=O)C(c2ccccc2)C(=O)N1 (stereo not drawn)" target_under_test=CCRF-CEM result="> 100 µM (inactive)"
molecule="C[C@@H]1OCC(O)C([C@H]2OC(c3ccccc3)=N[C@H]2CO)O1 (stereo partly drawn)" target_under_test=CCRF-CEM result="> 100 µM (inactive)"
molecule=O=[N+]([O-])c1cccc(-c2ccc([C@H]3CC(c4ccc(Cl)cc4)=NN3)o2)c1 target_under_test=CCRF-CEM result="1.43 µM (inactive)"
molecule="COc1c(O)c(OC)c(C(=O)/C=C/c2ccccc2)c(O)c1OC [PEDICIN]" target_under_test=CCRF-CEM result="94.6 µM (inactive)"
molecule=O=C(O)c1cccc(/C=C/c2ccccc2)c1 target_under_test=CCRF-CEM result="> 100 µM (inactive)"
molecule="CC1C2(C)OC(=N)C(C#N)(C(c3ccco3)O2)C1(C#N)C#N (stereo not drawn)" target_under_test=CCRF-CEM result="23.6 µM (inactive)"
molecule=CCOc1ccc(NC(=O)c2c(N/N=C/c3ccc(OC)cc3)nc(=O)[nH]c2C)cc1 target_under_test=CCRF-CEM result="> 100 µM (inactive)"
molecule="COC(=O)CCC(C)[C@H]1CCC2C3C(C[C@H](OC(C)=O)[C@@]21C)[C@@]1(C)CCC2(C[C@H]1C[C@H]3OC(C)=O)OOC1(CCCCCCC1)OO2 (stereo partly drawn)" target_under_test=CCRF-CEM result="4.97 µM (inactive)"
molecule="CC(C)=CCC/C(C)=C/CCC1(C)C2COC(=O)C21 (stereo not drawn)" target_under_test=CCRF-CEM result="26.9 µM (inactive)"
molecule=O=C(CCc1nnc2s/c(=C\c3ccc(Cl)c(Cl)c3)c(=O)n12)Nc1ccc(Cl)c(Cl)c1 target_under_test=CCRF-CEM result="22.5 µM (inactive)"
molecule=CC1CCOc2ccc(cc2)/C=N\c2ccc(cc2)-c2ccc(cc2)/N=C\c2ccc(cc2)OCC1 target_under_test=CCRF-CEM result="> 100 µM (inactive)"
molecule="C[C@]12CCC(=O)C=C1CC[C@@H]1[C@@H]2C(=O)C[C@@]2(C)[C@H]1CC[C@]2(O)C(=O)CO [CORTISONE]" target_under_test=CCRF-CEM result="> 100 µM (inactive)"
molecule=O=C(/C=C/c1ccc(OCc2ccccc2)cc1)NCc1ccc(C(=O)NCCc2c[nH]c3ccccc23)cc1 target_under_test=CCRF-CEM result="70.6 µM (inactive)"
molecule=CSC1=NN=C(SC)NN1 target_under_test=CCRF-CEM result="0.0243 µM (active)"
molecule=Nc1c(C(=O)O)nnc2cc(Cl)c(Cl)cc12 target_under_test=CCRF-CEM result="> 100 µM (inactive)"
molecule=COc1cc([C@H]2c3[nH]c4ccccc4c3C[C@H]3COC(=O)N32)cc(OC)c1O target_under_test=CCRF-CEM result="0.0209 µM (active)"
molecule="CC(C)N(C(=O)C12C3C4C5C3C1(C(=O)N(C(C)C)C(C)C)C5C42)C(C)C (stereo not drawn)" target_under_test=CCRF-CEM result="> 47.1 µM (inactive)"
molecule=COc1ccc2nc3ccccc3c(NCCCCCCN(C)CCCl)c2c1 target_under_test=CCRF-CEM result="0.0368 µM (active)"
molecule="O=C1NC(Cc2ccc(O)cc2)C(=O)N2CCCC12 (stereo not drawn)" target_under_test=CCRF-CEM result="> 100 µM (inactive)"
molecule=Cc1c(C(=O)OCc2ccccc2)[n+]([O-])c2cc(F)c(F)cc2[n+]1[O-] target_under_test=CCRF-CEM result="0.944 µM (active)"
molecule="COc1ccc(C(C#N)NNC(=O)c2ccccc2O)cc1OC (stereo not drawn)" target_under_test=CCRF-CEM result="1.21 µM (inactive)"
molecule="CC1=C2C(O)C(C(C)C(=O)NC(C)C)CCC2(C)C=CC1=O (stereo not drawn)" target_under_test=CCRF-CEM result="> 100 µM (inactive)"
molecule=COc1ccc(/C(Cl)=C(\C=O)c2ccc(F)cc2)cc1OC target_under_test=CCRF-CEM result="10.7 µM (inactive)"
